- test: protease stability score; higher = more stable; yeast display proteolysis, trypsin and chymotrypsin;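 note: relative to predicted unfolded state with 0 unfolded-like and 1 meaning tenfold more protease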
So I've got a bunch of sequences here, and I need their protease stability score values.
The answer should be written as a number, with no unit following it.

query: Provide measured protease stability score value, entry: "DTSFTILEEVIKLFIEASETGDERVIQHLFDPNVRFRVDGKDFHGMDWLLEHFSHLRLHDIQITHVHIYNGRVEVTGHVRGNFDGQEKVHNTHILLRKIDGKWRIEHISMK"
result: 1.41

query: Provide measured protease stability score value, entry: "REDERISQIAIEIVEHLIRTGDERVESELADPHMKLRINGVEIHGRERVHDWIHRFVTEFGIDRVEARVHDSHVVNGRIYNDTESHINGKNVKMRWIAIKYNGRWIQTMITFE"
result: 1.3

query: Provide measured protease stability score value, entry: "DEDHEDMRKILELLRTAYETGDERVHEHLLDPNTRLHIGEFNNVGWHNVLEFFEQHQKELGVKHIELRLEDFDKQGDFLIIHGRLIVNVNGKRINVHLEVHMHKVNGRWYDRERRVL"
result: 0.928

query: Provide measured protease stability score value, entry: "DEEDERLHEFAKLFADLWFTGDEEELHDLIDPHAKLNVDVNGRILDSHGREEFVKVLRKLREHLGVDHVELKDMKVQGDKVIIHGVLIINGRRFDSTLWVYIFNGKIESMEVRMR"
result: 1.69

query: Provide measured protease stability score value, entry: "DEEKEDFHHAVELVLRVIKTGDEHTARELMDPRVRIDIDGQDFHGWQHIVHFVKHWRIERYSLKYVEYIDGRIHNTVLLDITVDGQRRNLEVYIIFLKYNGRWILTEVILR"
result: 1.84

query: Provide measured protease stability score value, entry: "SEMEETAKTVYKRWFDMLHTGDEELLTRFMDPHVRVQQGDKEIVGWELVVTHNRHLRYEDSHLKDIETQGDKVIIRGELVLTIGDKRFTIDVEILAQKVDGRWILKSVRFS"
result: 0.035
